# credit: patent US12290596B2

test: Three-treatment crossover pharmacokinetics of IN nalmefene, three dosing regimens (Example 13); conditions: human, plasma, other: intranasal, 3 mg, […], Median, T1 (3 mg IN, one spray in one nostril); time 0.00
Measured property: concentration at 0 h (ng/mL)
Kindly answer with a numeric value in ng/mL, unit omitted.

Query string: Look up and report measured concentration at 0 h for this entry: C=C1CC[C@@]2(O)[C@H]3Cc4ccc(O)c5c4[C@@]2(CCN3CC2CC2)[C@H]1O5 [Nalmefene]
Result string: 0

###

experiment: Two-period crossover pharmacokinetics of nalmefene 3 mg IN vs 1.0 mg IM (Example 12); details: human, plasma, intramuscular, 1 mg, Median plasma concentration, Treatment B 1.0 mg IM; […]
Measured property: concentration at 24 h (ng/mL)
All answers are understood in ng/mL, so give the number only.

Query string: Tell me its concentration at 24 h given C=C1CC[C@@]2(O)[C@H]3Cc4ccc(O)c5c4[C@@]2(CCN3CC2CC2)[C@H]1O5 [Nalmefene] as the entry.
Result string: 0.203
